B1: Caulobacter ParB omega fusion; a variant is named by its letters at X, in order, B8GW30 (parent)
chain: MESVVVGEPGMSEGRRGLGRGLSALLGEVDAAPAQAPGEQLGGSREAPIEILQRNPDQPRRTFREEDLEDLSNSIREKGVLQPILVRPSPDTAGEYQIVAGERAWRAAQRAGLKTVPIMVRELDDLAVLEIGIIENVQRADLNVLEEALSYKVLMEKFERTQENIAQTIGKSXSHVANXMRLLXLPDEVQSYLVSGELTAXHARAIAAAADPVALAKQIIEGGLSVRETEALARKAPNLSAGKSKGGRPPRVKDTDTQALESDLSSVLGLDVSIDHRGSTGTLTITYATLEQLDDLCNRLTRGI

Variants of: B1
Experiment: one-hybrid fitness for binding NBS DNA (the Noc-binding site; scaled: cognate 1, non-cognate 0); higher = stronger binding
Conditions: with NBS DNA site
Whole data set: some 81,000 sequences, median “one-hybrid fitness for binding NBS DNA” near -0.1, cut for the highest 2% near 0.36. For the sample, the highest values were picked, then their nearest neighbours and some sequences at random.
Assay Metric: one-hybrid fitness for binding NBS DNA
Reply briefly: the number, and no unit.

Problem: Query (variant): "QTKS" ; field requested: one-hybrid fitness for binding NBS DNA
Solution: 0.783

Problem: # iterate: "RIKT"
Solution: 0.623

Problem: Quick one: "QIYS"
Solution: 0.27

Problem: And then "RKKR" , what is it?
Solution: 0.768

Problem: "QTVS" , same question.
Solution: 0.406

Problem: Next: "QIRH"
Solution: 0.44

Problem: Query "QIRS" next
Solution: 0.539

Problem: Ok, now "QTKH"
Solution: 0.744

Problem: // same read-out, input: "QTKD"
Solution: 0.398

Problem: Now this one: "QTHK"
Solution: 0.293

Problem: Then this variant: "RPVR"
Solution: 0.204

Problem: Next variant: "RCVR"
Solution: 0.349
